Experiment: NCI Yeast Anticancer Drug Screen. Data for the sgs1 mgt1 strain (AID 161);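 also: 0% = growth of cultures given vehicle only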
Settings: S. cerevisiae sgs1 mgt1 strain, at 5.0 µM (retest, dose inferred, filed as 0.5), active compounds read high
Compounds without any hit were thinned out: in the full panel of roughly 79,000, 15% have a hit.

>  <Compound>
CC(C)(C)[Si](C)(C)OCC1OC(n2cnc3c(NC(=O)c4ccccc4)ncnc32)CC1O (stereo unspecified)

>  <Unit text>
%

>  <growth inhibition>
-1

$$$$
>  <Compound>
CC(=O)Oc1ccc(C23CC4CC(CC(C4)C2)C3)cc1

>  <Unit text>
%

>  <growth inhibition>
16

$$$$
>  <Compound>
Cc1c(C)c(O)c2c(c1O)C(=O)C=C(Cl)C2=O

>  <Unit text>
%

>  <growth inhibition>
100

$$$$
>  <Compound>
O=[N+]([O-])c1ccccc1Oc1ccc([N+](=O)[O-])c(C(F)(F)F)c1

>  <Unit text>
%

>  <growth inhibition>
0

$$$$
>  <Compound>
Cn1cc(CCC(=O)C2C=CC=CC2=NC(=O)CCCl)c2ccccc21 (stereo unspecified)

>  <Unit text>
%

>  <growth inhibition>
-1

$$$$
>  <Compound>
Cc1ccccc1N=NC(C(=O)c1ccccc1)C(=O)c1ccccc1

>  <Unit text>
%

>  <growth inhibition>
15

$$$$
>  <Compound>
O=[N+]([O-])/C=C/C=C/c1ccco1

>  <Unit text>
%

>  <growth inhibition>
6

$$$$
>  <Compound>
Cc1c2ccncc2cc2c1sc1ccncc12

>  <Unit text>
%

>  <growth inhibition>
94

$$$$
>  <Compound>
[CH3][Sn]1([CH3])[O]C(=O)CCN=Cc2c(ccc3ccccc23)[O][Sn]([CH3])([CH3])[O]C(=O)CCN=Cc2c(ccc3ccccc23)[O]1

>  <Unit text>
%

>  <growth inhibition>
82

$$$$
>  <Compound>
c1ccc2c(c1)Cc1cc3ccccc3nc1-2

>  <Unit text>
%

>  <growth inhibition>
13

$$$$
>  <Compound>
CCOC(=O)CC1=NC(=Nc2cc(Cl)ccc2Cl)SC1

>  <Unit text>
%

>  <growth inhibition>
22

$$$$
>  <Compound>
COC(=O)/N=C/CCC(O)NC(=O)OC (stereo unspecified)

>  <Unit text>
%

>  <growth inhibition>
2

$$$$
>  <Compound>
CNC(=O)OCc1c(COC(=O)NC)c(-c2ccc(Cl)c(Cl)c2)n2c1Cc1ccccc1C2

>  <Unit text>
%

>  <growth inhibition>
-6

$$$$
>  <Compound>
CC1=C/C(=C(/c2ccc(O)c(C)c2)c2ccccc2C(=O)O)C=CC1=O

>  <Unit text>
%

>  <growth inhibition>
-9

$$$$
>  <Compound>
COc1cc(C)cc2c(-c3c(O)cc(O)c4c3C[C@H](C)N[C@H]4C)cc(-c3cc(-c4c(O)cc(O)c5c4C[C@H](C)N[C@H]5C)c4cc(C)cc(OC)c4c3O)c(O)c12

>  <Unit text>
%

>  <growth inhibition>
-14

$$$$
>  <Compound>
O=[N+]([O-])c1cccc(Cl)c1C(Nc1nncs1)Nc1nncs1

>  <Unit text>
%

>  <growth inhibition>
10

$$$$
>  <Compound>
CC(=O)CCC(Br)(CCC(Br)(CCC(C)=O)[N+](=O)[O-])[N+](=O)[O-] (stereo unspecified)

>  <Unit text>
%

>  <growth inhibition>
-5

$$$$
>  <Compound>
CCCCC(CCCC)=NNC(=S)SC

>  <Unit text>
%

>  <growth inhibition>
3

$$$$
>  <Compound>
Cc1c(N=Nc2c(S(=O)(=O)O)cc3cc(S(=O)(=O)O)c(N=Nc4c(C)n(C)n(-c5ccccc5)c4=O)c(O)c3c2O)c(=O)n(-c2ccccc2)n1C

>  <Unit text>
%

>  <growth inhibition>
-7

$$$$
>  <Compound>
CCC1C(c2cccc(OC)c2O)c2cc3c(cc2OC1N1CCCC1)OCO3 (stereo unspecified)

>  <Unit text>
%

>  <growth inhibition>
26

$$$$
>  <Compound>
Cc1cccc(N2C(c3ccccc3)c3ccc(C)cc3NS2=O)c1 (stereo unspecified)

>  <Unit text>
%

>  <growth inhibition>
1

$$$$

Data origin, for the record: PubChem BioAssay (NCI)
